Value source: PubChem BioAssay (NCI)

System: HOP-92 NSCLC
ASSAY TEXT: NCI tumour cell line growth inhibition, 48 h; in the data active = GI50 below about 0.43 µM; inactive = the rest
Outcomes you can answer with include only these: TRUE (active), FALSE (inactive)

Query: Per the records of this test, what outcome belongs to `C/C1=C\C/C=C(\C)[C@H]2CC(CC/C(C)=C/CC1)[C@](C)(C=O)O2` ?
Result: FALSE

New cases:
Query: Per the records of this test, what outcome belongs to `N[C@@H]1CCCC[C@@H]1N.O=C([O-])CN(CP(=O)([O-])[O-])CP(=O)([O-])[O-].[Pt+2]` ?
Result: FALSE

Query: Per the records of this test, what outcome belongs to O=C(O)c1cc(Cc2ccc(O)c(C(=O)O)c2)ccc1O (tested in a mixture with another compound) ?
Result: FALSE

Query: Per the records of this test, what outcome belongs to `NC(=S)N/N=C\c1nccc2c(N)cccc12` ?
Result: TRUE

Query: Per the records of this test, what outcome belongs to `O=C(NNS(=O)(=O)c1ccc(F)cc1)c1cccnc1Nc1ccc(Cl)cc1Cl` ?
Result: FALSE

Query: Per the records of this test, what outcome belongs to `C[C@@H](Oc1ccc2[nH]nc(/C=C/c3cnn(CCO)c3)c2c1)c1c(Cl)cncc1Cl` ?
Result: TRUE

Query: Per the records of this test, what outcome belongs to `CN1CCN(c2ccc(NC3=C(Cl)C(=O)c4ncccc4C3=O)cc2C#N)CC1` ?
Result: FALSE

Query: Per the records of this test, what outcome belongs to `CCOC(=O)N[C@H]1CCc2c(Br)c(OC)c(OC)c(OC)c2-c2ccc(SC)c(=O)cc21` ?
Result: TRUE

Query: Per the records of this test, what outcome belongs to `N#C/C(N)=C(\C#N)N=Cc1csc2ccccc12` ?
Result: FALSE

====

Test system: NCI-H460 lung
ASSAY TEXT: NCI tumour cell line growth inhibition, 48 h
Please respond with reported TGI for every item in the list.

Entry `Nc1cc(-c2ccc(Cl)cc2)nn1-c1nc2ccccc2nc1-c1ccccc1` ; TGI = > 100 µM

For each of the items listed, what is its TGI?
1. O=S(=O)(O)/C(=C\c1ccccc1)c1ccccc1 (tested in a mixture with another compound)
2. CC(=O)N/N=C1/CC[C@@]2(C)C(=CC[C@H]3C4CCC(C(C)CCCC(C)C)[C@@]4(C)CCC32)C1(C)C (some centres undefined)
3. Cc1cc(N(CCC#N)CCC#N)ccc1N=Nc1cccc(Cl)c1
4. COc1ccc(C(=O)COc2cccc(/C=C3\CSc4ccc(Cl)cc4C3=O)c2)cc1

Result:
1: > 100 µM; 2: > 100 µM; 3: > 100 µM; 4: 34.9 µM

For each of the items listed, what is its TGI?
1. CCCCCCCCCCCCCCCC(=O)OC(COC(C)=O)CO[P+](=O)O (centres undefined)
2. COC(OC)C1OC(CO)C(n2cc(F)c(=O)[nH]c2=O)C1O (centres undefined)
3. O=C1CC2(CCC(O)(c3cccs3)C(C(=O)c3cccs3)C2)C(=O)c2ccccc2N1 (centres undefined)
4. CCNc1nc2c(ncn2C2CC(O)C(COP(=O)(O)O)O2)c(=O)[nH]1 (centres undefined)

Result:
["> 100 µM", "> 100 µM", "46.6 µM", "> 100 µM"]

====

Test system: UACC-62 melanoma
ASSAY TEXT: NCI tumour cell line growth inhibition, 48 h
MEASUREMENT LABEL: TGI

// solved cases for TGI follow
Per the reported UACC-62 melanoma data, `CC(/C=N\NC(=S)N(C)C)=N/NC(=S)N(C)C` has TGI of > 100 µM

Per the reported UACC-62 melanoma data, `NCCP(=O)(O)O` has TGI of > 100 µM

Per the reported UACC-62 melanoma data, CC(=O)N/N=C1/CC[C@@]2(C)C(=CC[C@H]3C4CCC(C(C)CCCC(C)C)[C@@]4(C)CCC32)C1(C)C (stereo partly drawn) has TGI of > 100 µM

Per the reported UACC-62 melanoma data, `CN(C)CCc1ccnc2nc(-c3ccc4ccccc4c3)cn12` has TGI of > 100 µM

Per the reported UACC-62 melanoma data, `CCSC1=N/C(=C/c2ccccc2O)C(=O)N1` has TGI of > 100 µM

Per the reported UACC-62 melanoma data, CNC(=O)OC1C(O[C@H]2C[C@H]3[C@@H]4CC=C5C[C@@H](O)CC[C@]5(C)[C@H]4CC[C@]3(C)[C@H]2[C@H](C)C(=O)CCC(C)C)OCC(O)C1OC1OCC(O)C(O)C1OC(=O)c1ccc(OC)cc1 (stereo partly drawn) has TGI of 0.0188 µM

Per the reported UACC-62 melanoma data, `Cc1cc(C)c2c(SCc3ccc(Cl)cc3Cl)nc(N)nc2n1` has TGI of > 100 µM

Per the reported UACC-62 melanoma data, `COC(=O)/C(=C/c1ccc(OC)cc1)NC(=O)c1ccccc1` has TGI of > 100 µM

Per the reported UACC-62 melanoma data, `Nc1cc(N2CCOCC2)nc(=O)n1-c1ccc(Cl)cc1` has TGI of > 100 µM

Per the reported UACC-62 melanoma data, Cc1ccc(CC(Cc2ccc(C)cc2C(=O)O)C(=O)O)cc1 (stereo not drawn) has TGI of > 100 µM

For each of the items listed, what is its TGI?
1. COc1ccc(/C=C/C(=O)c2cc3c(N)c(C(=O)Nc4ccccc4C)sc3nc2C)cc1
2. CC(=O)Oc1cc(C)c(OC(C)=O)c2c1[C@H]1CC[C@]3(C)[C@@H](OC(C)=O)CC[C@H]3[C@@H]1CC2
3. C#Cc1cccc(Oc2ccc(NC(=O)CCl)cc2)c1

Result:
1. > 50 µM
2. 32.8 µM
3. > 82.5 µM
